Biological target: hNav1.1 sodium channel (Homo sapiens)
Construct: host or cells: CHO cells
Experiment: Nav channel electrophysiology (IonWorks Quattro)
Assay type: cell-based
Details: Tonic block
metric: IC50 (µM)

{"molecule": "CCC(CO)NCCOc1c(C)cccc1Cl (stereo not shown)", "metric": "IC50", "uom": "µM", "meas-value": 64.2}

* * *

Assay: Pharmacokinetics in plasma
Assay type: in vivo, rats
Conditions: male, Wistar, rat, plasma; rats, iv 1 mg/kg

{"compound": "CCC(CO)NCCOc1c(C)cccc1Cl (stereo not shown)", "C0 / ng/mL": 371}

* * *

Test system: CYP3A4 (pregnane X receptor)
Experiment: In vitro metabolic gene induction studies
Format: cell-based, human
Conditions: read-out: EC50 (calculated)

{"compound": "CCC(CO)NCCOc1c(C)cccc1Cl (stereo not shown)", "tested-on": "CYP3A4 (pregnane X receptor)", "EC50 (µM)": 100}
